TESTED_SYSTEM: PDE10A
ASSAY_OVERVIEW: Phosphodiesterase assay (TR-FRET, LANCE cAMP kit)
EXPERIMENTAL_PARAMETERS: PDE10A (BPS Bioscience) 200 pg/well, biotin-cAMP substrate, 60 min at room temperature
Counter-ions that a name gives are not always drawn.
Kindly state pIC50 for each of the entries shown.
// pIC50: -log10(molar conc.)

[Q] Specify the recorded pIC50 for CCOc1cccc2ncc(Cc3c(O)nc(C)c4cc(OC)c(OC)cc34)cc12 [Compound 28, dihydrochloride] , system: PDE10A.
[A] 8.22

[Q] Specify the recorded pIC50 for CCc1nc(O)c(Cc2cc3cc(OC)ccc3nc2NCc2ccccc2)c2cc(OC)c(OC)cc12 [Compound 44, dihydrochloride] , system: PDE10A.
[A] 8.10

[Q] Specify the recorded pIC50 for CCCc1nc(O)c(Cc2cc3cc(OC)ccc3nc2CC)c2cc(OC)c(OC)cc12 [Compound 66, dihydrochloride] , system: PDE10A.
[A] 7.80

[Q] Specify the recorded pIC50 for CNc1nc2ccc(C)cc2cc1Cc1c(O)nc(C)c2cc(OC)c(OC)cc12 [Compound 33, dihydrochloride] , system: PDE10A.
[A] 7.89

[Q] Specify the recorded pIC50 for CCCc1nc(O)c(Cc2cc3cc(OCC4CC4)ccc3nc2NCCNC(C)=O)c2cc(OC)c(OC)cc12 [Compound 83, dihydrochloride] , system: PDE10A.
[A] 8.00
